Ref: paper PMC7011974

System: L. infantum promastigotes
Assay: Antileishmanial activity on L. infantum promastigotes (MTT)
Format: cell-based, Leishmania infantum
Settings: percent of amphotericin B potency, calculated for each experiment
Property: IC50 amph. B ×100/IC50 compd., L. infantum
Provide a numeric answer; units are not to be included.

# molecule `CC(=O)c1ccc2c(c1)nc(Cc1ccc(Cl)cc1)n2C[C@@H]1CCCN2CCCC[C@H]12` ; its IC50 amph. B ×100/IC50 compd., L. infantum = 1.32

# molecule `CCCCCCCCCCCCCCCc1n(C)c2cc(Cl)c(Cl)cc2[n+]1C.[I-]` ; its IC50 amph. B ×100/IC50 compd., L. infantum = 14.1

# molecule `FC(F)(F)c1ccc2c(c1)nc(Cc1ccc(Cl)cc1)n2C[C@@H]1CCCN2CCCC[C@H]12` ; its IC50 amph. B ×100/IC50 compd., L. infantum = 4.4

# molecule `Cn1c(Cc2ccc(Cl)cc2)[n+](C)c2cc(C(F)(F)F)ccc21.[I-]` ; its IC50 amph. B ×100/IC50 compd., L. infantum = 0.70

# molecule `CCCCCCCCCCCCCCCc1n(Cc2ccccc2)c2ccccc2[n+]1Cc1ccccc1.[Cl-]` ; its IC50 amph. B ×100/IC50 compd., L. infantum = 2.9

# molecule `COc1ccc(-c2nc3cc(C(F)(F)F)ccc3n2C[C@@H]2CCCN3CCCC[C@H]23)cc1` ; its IC50 amph. B ×100/IC50 compd., L. infantum = 1.86

# molecule CCCCCCCCCCCCCCCCOP(=O)([O-])OCC[N+](C)(C)C [Miltefosine, miltefosine, reference compound] ; its IC50 amph. B ×100/IC50 compd., L. infantum = 0.27

# molecule `CCCCCCCCCCCCCCCc1n(C)c2ccccc2[n+]1CCC.[I-]` ; its IC50 amph. B ×100/IC50 compd., L. infantum = 37.1

# molecule `Oc1ccc(-c2nc3cc(C(F)(F)F)ccc3n2C[C@@H]2CCCN3CCCC[C@H]23)cc1` ; its IC50 amph. B ×100/IC50 compd., L. infantum = 1.20

# molecule `CCCCCCCCCCCc1n(Cc2ccccc2)c2ccccc2[n+]1Cc1ccccc1.[Cl-]` ; its IC50 amph. B ×100/IC50 compd., L. infantum = 25.6

# molecule C[C@@H]1[C@H](O)[C@@H](C)/C=C/C=C/C=C/C=C/C=C/C=C/C=C/[C@H](O[C@@H]2O[C@H](C)[C@@H](O)[C@H](N)[C@@H]2O)C[C@@H]2O[C@](O)(C[C@@H](O)C[C@@H](O)[C@H](O)CC[C@@H](O)C[C@@H](O)CC(=O)O[C@H]1C)C[C@H](O)[C@H]2C(=O)O [Amph. B, amphotericin B, reference compound] ; its IC50 amph. B ×100/IC50 compd., L. infantum = 100

# molecule `CCCCCCCCCCCc1n(C)c2ccccc2[n+]1C.[I-]` ; its IC50 amph. B ×100/IC50 compd., L. infantum = 55.7

# molecule `CC(=O)c1ccc2c(c1)nc(Cc1ccccc1)n2C[C@@H]1CCCN2CCCC[C@H]12` ; its IC50 amph. B ×100/IC50 compd., L. infantum = 0.73

# molecule `FC(F)(F)c1ccc2c(c1)nc(-c1ccccc1)n2C[C@@H]1CCCN2CCCC[C@H]12` ; its IC50 amph. B ×100/IC50 compd., L. infantum = 1.73
